# Test System: T1, Rhesus D antigen (human, UniProt Q02161 2-417)
# T1 construct: whole, on cells; Presented on RhD(+) erythrocytes; also called RhD; RhD antigen
# T1 sequence (looked up): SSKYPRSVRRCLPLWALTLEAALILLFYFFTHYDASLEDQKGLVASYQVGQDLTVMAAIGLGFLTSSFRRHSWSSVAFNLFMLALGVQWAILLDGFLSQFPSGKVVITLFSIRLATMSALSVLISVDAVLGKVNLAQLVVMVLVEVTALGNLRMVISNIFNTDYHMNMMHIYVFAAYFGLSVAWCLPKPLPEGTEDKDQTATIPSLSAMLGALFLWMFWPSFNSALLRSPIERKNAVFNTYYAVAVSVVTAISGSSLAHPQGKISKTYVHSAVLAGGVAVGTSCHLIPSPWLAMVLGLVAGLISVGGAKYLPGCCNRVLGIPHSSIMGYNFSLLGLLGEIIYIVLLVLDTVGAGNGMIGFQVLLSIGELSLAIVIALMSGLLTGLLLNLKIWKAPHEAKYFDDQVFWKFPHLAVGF
# Assay Comment: agglutination assay, Fab periplasmic extract on RhD(+)/RhD(-) RBC mix
Recorded Metric: binding result

binding result measured on RhD161.119E09 (Fab, V domains shown, Tested as Fab in E. coli periplasmic extract (VH on human gamma 1 CH1, vector Em351)) VH: EVQLVESGGGVVQSGRSLRLSCAASGFTFSNNGMHWVRQAPGKGLEWVAFIWYDGSNKYYADSVKGRFTISRDNSKNTLYLQMDGLRAEDSAVYYCAREEIAARLYSRYHYAMDVWGQGTMVTVSS VL: DIQMTQSPSFLSASVGDRVTITCRASQGIRRYLAWFQQKPGKAPKLLIFSASTLQSGVPSRFSGSGSGTEFTLTISSLQPEDFATYYCQQLSSYPPYTFGQGTKLEIKR = binds
